All values here come from patent US20090202499A1.

target: purified HLA-B*3501 (human); assay: competition radioimmunoassay on purified HLA, radiolabeled standard peptide; settings: remark: other sources report otherwise
RESULT_TYPE: IC50 (nM)
Give bare numbers, in nM.

IC50 reading for RPSFLLSSL [hTRT peptide p342 (…)] : 1020
